Measured melting point by item
Counter-ions that a name gives are not always drawn.

Answered examples (5):
1. O=C(Nc1ccc2nccnc2c1)c1cc2cc(F)ccc2n1Cc1cccc(F)c1; 188 to 189 °C
2. O=C1CCc2ccc(NC(=O)c3cc4cc(C(F)(F)F)ccc4n3Cc3cccc(F)c3)cc2N1; 298 to 299 °C
3. O=C(Nc1ccc2ccncc2c1)c1cc2cc(F)ccc2n1Cc1cccc(F)c1 (as salt: HCl); 270 to 272 °C
4. O=C(Nc1ccc2c(c1)NCCC2)c1cc2ccccc2n1-c1cccc(C(F)(F)F)c1; 140 to 143 °C
5. Cc1nc2cc(NC(=O)c3cc4cc(C(F)(F)F)ccc4n3Cc3cccc(F)c3)ccc2o1; 182 to 183 °C

What melting point value was documented for this compound, "Cc1nc2cc(NC(=O)c3cc4cc(F)ccc4n3Cc3cccc(F)c3)ccc2s1" ?
201 to 202 °C

What melting point value was documented for this compound, CC1C(=O)NOc2ccc(NC(=O)c3cc4ccccc4n3-c3cccc(C(F)(F)F)c3)cc21 (stereo not drawn) ?
178 to 180 °C

What melting point value was documented for this compound, "O=C(Nc1ccc2[nH]nnc2c1)c1cc2cc(F)ccc2n1Cc1cccc(F)c1" ?
220 to 221 °C

What melting point value was documented for this compound, "Cc1nc2cc(NC(=O)c3cc4cc(F)ccc4n3Cc3cccc(F)c3)ccc2n1C" ?
281 to 282 °C

---

Measured melting point by item

Answered examples (2):
1) CC1C(=O)NOc2cc(NC(=O)c3cc4ccccc4n3-c3cccc(C(F)(F)F)c3)ccc21 (stereo not drawn) [Compound 5]; 198 to 200 °C
2) O=C1Cc2cc(NC(=O)c3cc4cc(F)ccc4n3Cc3cccc(F)c3)ccc2N1 [Compound 42]; 249 to 250 °C

# ---- query compound ----
What melting point value was documented for this compound, CS(=O)(=O)N1CCc2cc(NC(=O)c3cc4cc(C(F)(F)F)ccc4n3Cc3cccc(F)c3)ccc21 [Compound 31] ?
214 to 215 °C
